B1: tRNA (parent)
chain: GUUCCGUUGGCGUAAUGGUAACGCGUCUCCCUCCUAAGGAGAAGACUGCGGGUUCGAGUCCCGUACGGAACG

variants of: B1; assay: yeast fitness, log relative to wild type (ln ratio); higher = fitter; tRNA-Arg(CCU), competitive growth, 37 C, 1 M NaCl
Classification by yeast fitness (ln) follows these ranges: band A = under -0.3, band B = from -0.3 up to -0.1, band C = -0.1 and over

Query: Hi there! Could you help me figure out the category for G1A U2G G6U C27U A43C C66U A69G A70U please?
Result: band A

Query: Hi there! Could you help me figure out the category for U2C G6U A69G A70G please?
Result: band B

Query: Hi there! Could you help me figure out the category for U2C G6U C46U A70U please?
Result: band C

Query: Hi there! Could you help me figure out the category for G1A A43C C46U C66A A70G please?
Result: band B

Query: Hi there! Could you help me figure out the category for U2G G6U C27U A43C C46U C66A A69G C71U please?
Result: band A

Query: Hi there! Could you help me figure out the category for U2C C46U C66U A69G A70G C71U please?
Result: band C

Query: Hi there! Could you help me figure out the category for A43C C46U C66A A69G A70U please?
Result: band C

Query: Hi there! Could you help me figure out the category for G1A U2C G6A A43C A70U please?
Result: band B

Query: Hi there! Could you help me figure out the category for G1A U2C G6U A69G A70U C71U please?
Result: band B

Query: Hi there! Could you help me figure out the category for G1A U2G A43C C46U A69G A70G please?
Result: band B

Query: Hi there! Could you help me figure out the category for G1A U2G C46U A70U please?
Result: band B

Query: Hi there! Could you help me figure out the category for U2G G6A C27U C46U A70U please?
Result: band B

Query: Hi there! Could you help me figure out the category for G1A G6U C27U C46U C66U A70U please?
Result: band B

Query: Hi there! Could you help me figure out the category for U2C C27U C66U A69G A70G please?
Result: band B

Query: Hi there! Could you help me figure out the category for U2C G6U A43C C46U C66U A69G A70G please?
Result: band B

Query: Hi there! Could you help me figure out the category for U2C C27U A43C C46U C66U please?
Result: band C

Query: Hi there! Could you help me figure out the category for G1A G6U C46U C66A A69G A70U C71U please?
Result: band A

Query: Hi there! Could you help me figure out the category for G1A U2G G6A please?
Result: band C

Query: Hi there! Could you help me figure out the category for G1A U2G C66A A70U C71U please?
Result: band B
